- ASSAY OVERVIEW: xn = mol fraction of the nth substance listed
- TEST CONTEXT: 308.15 K; 100.5 kPa; Liquid; x1 = 0.15
RECORDED METRIC: viscosity (mPa·s)

CCOC(=O)Cc1ccccc1 [ethyl phenylacetate] + CCO ... 1.003
CC(=O)OCCC(C)C [3-methylbutyl ethanoate] + CCO ... 0.762
CCCCCCCC(=O)OCC [ethyl octanoate] + CCO ... 0.915
CCCCCC(=O)OCC [ethyl hexanoate] + CCO ... 0.806
CCCC(=O)OCCC(C)C [3-methylbutyl butanoate] + CCO ... 0.844
CCOC(=O)c1ccccc1 [ethyl benzoate] + CCO ... 0.959

----------
- ASSAY OVERVIEW: xn = mol fraction of the nth substance listed
- TEST CONTEXT: 318.15 K; 101 kPa; Liquid; x1 = 0.75
RECORDED METRIC: mass density (kg/m3)

CCCCCC(=O)OCC [ethyl hexanoate] + CCO ... 837.97
CCCCCCCC(=O)OCC [ethyl octanoate] + CCO ... 837.01
CCOC(=O)c1ccccc1 [ethyl benzoate] + CCO ... 992.45
CCCC(=O)OCCC(C)C [3-methylbutyl butanoate] + CCO ... 832.49
CCOC(=O)Cc1ccccc1 [ethyl phenylacetate] + CCO ... 982.04

----------
- ASSAY OVERVIEW: xn = mol fraction of the nth substance listed
- TEST CONTEXT: 288.15 K; 101 kPa; Liquid; x1 = 0.4
RECORDED METRIC: mass density (kg/m3)

CCCCCC(=O)OCC [ethyl hexanoate] + CCO ... 846.5
CCCCCCCC(=O)OCC [ethyl octanoate] + CCO ... 846.39
CCOC(=O)c1ccccc1 [ethyl benzoate] + CCO ... 955.85
CCCC(=O)OCCC(C)C [3-methylbutyl butanoate] + CCO ... 842.96
CCOC(=O)Cc1ccccc1 [ethyl phenylacetate] + CCO ... 952.17

----------
- ASSAY OVERVIEW: xn = mol fraction of the nth substance listed
- TEST CONTEXT: 318.15 K; 101 kPa; Liquid; x1 = 0.9
RECORDED METRIC: mass density (kg/m3)

CCCCCCCC(=O)OCC [ethyl octanoate] + CCO ... 842.05
CCOC(=O)c1ccccc1 [ethyl benzoate] + CCO ... 1011.62
CCCC(=O)OCCC(C)C [3-methylbutyl butanoate] + CCO ... 837.56
CCOC(=O)Cc1ccccc1 [ethyl phenylacetate] + CCO ... 998.73
CCCCCC(=O)OCC [ethyl hexanoate] + CCO ... 843.97

----------
- ASSAY OVERVIEW: xn = mol fraction of the nth substance listed
- TEST CONTEXT: 298.15 K; 101 kPa; Liquid; x1 = 0.8
RECORDED METRIC: mass density (kg/m3)

CCOC(=O)Cc1ccccc1 [ethyl phenylacetate] + CCO ... 1006.93
CCCCCC(=O)OCC [ethyl hexanoate] + CCO ... 859.09
CCCCCCCC(=O)OCC [ethyl octanoate] + CCO ... 856.41
CCOC(=O)c1ccccc1 [ethyl benzoate] + CCO ... 1018.2
CCCC(=O)OCCC(C)C [3-methylbutyl butanoate] + CCO ... 852.65

----------
- ASSAY OVERVIEW: xn = mol fraction of the nth substance listed
- TEST CONTEXT: 288.15 K; 101 kPa; Liquid; x1 = 0.7
RECORDED METRIC: mass density (kg/m3)

CCOC(=O)c1ccccc1 [ethyl benzoate] + CCO ... 1013.67
CCCCCCCC(=O)OCC [ethyl octanoate] + CCO ... 861.52
CCCCCC(=O)OCC [ethyl hexanoate] + CCO ... 864.22
CCCC(=O)OCCC(C)C [3-methylbutyl butanoate] + CCO ... 858.18
CCOC(=O)Cc1ccccc1 [ethyl phenylacetate] + CCO ... 1004.13

----------
- ASSAY OVERVIEW: xn = mol fraction of the nth substance listed
- TEST CONTEXT: 288.15 K; 101 kPa; Liquid; x1 = 0.9
RECORDED METRIC: mass density (kg/m3)

CCCC(=O)OCCC(C)C [3-methylbutyl butanoate] + CCO ... 864.86
CCOC(=O)c1ccccc1 [ethyl benzoate] + CCO ... 1039.87
CCOC(=O)Cc1ccccc1 [ethyl phenylacetate] + CCO ... 1026.95
CCCCCC(=O)OCC [ethyl hexanoate] + CCO ... 872.22
CCCCCCCC(=O)OCC [ethyl octanoate] + CCO ... 868.19

----------
- ASSAY OVERVIEW: xn = mol fraction of the nth substance listed
- TEST CONTEXT: 288.15 K; 100.5 kPa; Liquid; x1 = 0.35
RECORDED METRIC: viscosity (mPa·s)

Recorded viscosity, per entry:
CC(=O)OCCC(C)C [3-methylbutyl ethanoate] + CCO ... 0.948
CCCC(=O)OCCC(C)C [3-methylbutyl butanoate] + CCO ... 1.168
CCOC(=O)Cc1ccccc1 [ethyl phenylacetate] + CCO ... 1.742

(a) CCOC(=O)c1ccccc1 [ethyl benzoate] + CCO
(b) CCCCCC(=O)OCC [ethyl hexanoate] + CCO
Prompt line: In the pair a and b , the larger recorded viscosity belongs to which? // return label of chosen record
Response line: a
(a: 1.557 mPa·s, b: 1.051 mPa·s)

----------
- ASSAY OVERVIEW: xn = mol fraction of the nth substance listed
- TEST CONTEXT: 308.15 K; 101 kPa; Liquid; x1 = 0.85
RECORDED METRIC: mass density (kg/m3)

CCCC(=O)OCCC(C)C [3-methylbutyl butanoate] + CCO ... 845.15
CCCCCCCC(=O)OCC [ethyl octanoate] + CCO ... 849.25
CCOC(=O)c1ccccc1 [ethyl benzoate] + CCO ... 1015.13
CCCCCC(=O)OCC [ethyl hexanoate] + CCO ... 851.59
CCOC(=O)Cc1ccccc1 [ethyl phenylacetate] + CCO ... 1002.97

----------
- ASSAY OVERVIEW: xn = mol fraction of the nth substance listed
- TEST CONTEXT: 318.15 K; 101 kPa; Liquid; x1 = 0.4
RECORDED METRIC: mass density (kg/m3)

CCCCCC(=O)OCC [ethyl hexanoate] + CCO ... 818.2
CCOC(=O)c1ccccc1 [ethyl benzoate] + CCO ... 927.41
CCCC(=O)OCCC(C)C [3-methylbutyl butanoate] + CCO ... 815.3
CCOC(=O)Cc1ccccc1 [ethyl phenylacetate] + CCO ... 923.77
CCCCCCCC(=O)OCC [ethyl octanoate] + CCO ... 819.58

----------
- ASSAY OVERVIEW: xn = mol fraction of the nth substance listed
- TEST CONTEXT: 288.15 K; 100.5 kPa; Liquid; x1 = 0.05
RECORDED METRIC: viscosity (mPa·s)

CC(=O)OCCC(C)C [3-methylbutyl ethanoate] + CCO ... 1.22
CCCCCCCC(=O)OCC [ethyl octanoate] + CCO ... 1.322
CCOC(=O)Cc1ccccc1 [ethyl phenylacetate] + CCO ... 1.366
CCCCCC(=O)OCC [ethyl hexanoate] + CCO ... 1.241
CCOC(=O)c1ccccc1 [ethyl benzoate] + CCO ... 1.342
CCCC(=O)OCCC(C)C [3-methylbutyl butanoate] + CCO ... 1.27

----------
- ASSAY OVERVIEW: xn = mol fraction of the nth substance listed
- TEST CONTEXT: 318.15 K; 101 kPa; Liquid; x1 = 0.7
RECORDED METRIC: mass density (kg/m3)

CCCC(=O)OCCC(C)C [3-methylbutyl butanoate] + CCO ... 830.57
CCOC(=O)c1ccccc1 [ethyl benzoate] + CCO ... 985.12
CCCCCC(=O)OCC [ethyl hexanoate] + CCO ... 835.75
CCCCCCCC(=O)OCC [ethyl octanoate] + CCO ... 835.05
CCOC(=O)Cc1ccccc1 [ethyl phenylacetate] + CCO ... 975.65

----------
- ASSAY OVERVIEW: xn = mol fraction of the nth substance listed
- TEST CONTEXT: 318.15 K; 100.5 kPa; Liquid; x1 = 0.65
RECORDED METRIC: viscosity (mPa·s)

Recorded viscosity, per entry:
CCCCCCCC(=O)OCC [ethyl octanoate] + CCO ... 0.917
CCCCCC(=O)OCC [ethyl hexanoate] + CCO ... 0.668
CCCC(=O)OCCC(C)C [3-methylbutyl butanoate] + CCO ... 0.751
CCOC(=O)Cc1ccccc1 [ethyl phenylacetate] + CCO ... 1.286

(1) CC(=O)OCCC(C)C [3-methylbutyl ethanoate] + CCO
(2) CCOC(=O)c1ccccc1 [ethyl benzoate] + CCO
Prompt line: In the pair 1 and 2 , the larger recorded viscosity belongs to which? // return label of chosen record
Response line: 2
